Source of measurements: patent US12371421B2

- Run Description: Approximate solubility of Form A in solvents at room temperature
- Assay type: physicochemical
- Condition Info: organic solvent or mixture, thermodynamic from solid, MeOH
Reported Metric: solubility

Measured solubility of C[C@@H](COCCC(=O)N1CCN(c2ncc(C(F)(F)F)cn2)CC1)Nc1cn[nH]c(=O)c1C(F)(F)F [Form A] : < 1100 µg/mL

* * *

- Run Description: Approximate solubility of Form A in solvents at room temperature
- Type: physicochemical
- Condition Info: organic solvent or mixture, thermodynamic from solid, IPA
Reported Metric: solubility

Reported solubility ( C[C@@H](COCCC(=O)N1CCN(c2ncc(C(F)(F)F)cn2)CC1)Nc1cn[nH]c(=O)c1C(F)(F)F [Form A] ) = < 1100 µg/mL
